- System: Klebsiella pneumoniae IFO3317
Observed Property: MIC

The following compounds have reported results that may help.
CC(=O)Oc1ccc([C@H](O/N=C(\C(=O)N[C@@H]2C(=O)N3C(C(=O)O)=C(CSc4cc(C)nc5nc(C(=O)O)nn45)CS[C@H]23)c2csc(N)n2)C(=O)O)cc1OC(C)=O	< 0.05 µg/mL
Cc1cc(SCC2=C(C(=O)O)N3C(=O)[C@@H](NC(=O)/C(=N\OC(C(=O)O)c4cc(O)c(O)c(O)c4)c4csc(N)n4)[C@H]3SC2)n2nc(C(=O)O)nc2n1 (some centres unmarked)	< 0.05 µg/mL
Nc1nc(/C(=N/O[C@H](C(=O)O)c2ccc(O)c(O)c2)C(=O)N[C@@H]2C(=O)N3C(C(=O)[O-])=C(C[n+]4cccc5c4CCC5)CS[C@H]23)cs1	< 0.05 µg/mL

## Input For Nc1nc(/C(=N/OC(C(=O)O)c2ccc(O)c(O)c2)C(=O)N[C@@H]2C(=O)N3C(C(=O)O)=C(CSc4cc(C(=O)O)c5nnnn5n4)CS[C@H]23)cs1 (some centres unmarked) , what is its reported MIC?
## Output < 0.05 µg/mL

## Input For Cc1cc(SCC2=C(C(=O)O)N3C(=O)[C@@H](NC(=O)/C(=N\OC(=O)c4cc(O)c(O)c(O)c4)c4csc(N)n4)[C@H]3SC2)n2nc(C(=O)O)nc2n1 , what is its reported MIC?
## Output < 0.05 µg/mL
